Hello, the source for this data is patent US10745400B2, in case you need it.

targetSystem: ALK1/ACVRL1 (Homo sapiens, UniProt P37023)
Sequence (P37023 22-503): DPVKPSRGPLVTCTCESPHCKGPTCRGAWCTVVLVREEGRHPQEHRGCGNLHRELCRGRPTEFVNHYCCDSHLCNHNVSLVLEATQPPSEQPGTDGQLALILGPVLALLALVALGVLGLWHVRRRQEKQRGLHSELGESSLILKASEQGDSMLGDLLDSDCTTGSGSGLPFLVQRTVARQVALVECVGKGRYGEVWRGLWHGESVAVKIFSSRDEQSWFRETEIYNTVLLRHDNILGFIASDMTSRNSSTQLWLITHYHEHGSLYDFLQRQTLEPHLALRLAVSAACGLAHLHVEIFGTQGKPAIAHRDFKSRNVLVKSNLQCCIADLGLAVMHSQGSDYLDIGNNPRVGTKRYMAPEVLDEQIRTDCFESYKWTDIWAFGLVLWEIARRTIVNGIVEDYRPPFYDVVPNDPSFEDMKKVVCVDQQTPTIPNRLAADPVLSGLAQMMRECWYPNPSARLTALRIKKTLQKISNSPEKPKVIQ
test: Kinase assay (33P-ATP filter-binding), ALK1
Format: biochemical
testContext: Kinase Selectivity ALK1/ACVRL1
reportedEndpoint: IC50

# "O=S(=O)(F)Oc1ccc(-c2cnc3cc(-c4ccc(N5CCOCC5)cc4)ccn23)c2ccccc12" with ALK1/ACVRL1 (Homo sapiens, UniProt P37023): IC50 is > 30 µM

----------
targetSystem: ALK1/ACVRL1 (Homo sapiens, UniProt P37023)
test: Kinase assay (33P-ATP filter-binding), ALK1
Assay type: biochemical
testContext: read-out: Kinase Selectivity ALK1/ACVRL1
Simple rule here: IC50 less than 30 nM is t, otherwise f.

// query For this compound, is IC50 lower than 30 nM? Cc1cc(-c2cnc3cc(-c4ccc(C5CNCCN5)cc4)ccn23)c2cc(F)ccc2n1 (centres unmarked) [Compound 17]
// result f

// query Regarding "Cc1cc(-c2cnc3cc(-c4ccc(N5CCN(C)CC5)cc4)ccn23)c2cccnc2n1" , kindly confirm whether its IC50 is beneath 30 nM.
// result f

// query Determine whether this compound shows IC50 lower than 30 nM (ties excluded): Cc1cc(-c2cnc3cc(-c4ccc(C5COC(C)CN5)cc4)ccn23)c2cc(F)ccc2n1 (centres unmarked)
// result f

// query Hello, I'm reviewing records and need to know if IC50 of Cc1cc(-c2cnc3cc(-c4ccc(C5CNCCN5)cc4)ccn23)c2cc(F)ccc2n1 (centres unmarked) [Compound 18] is below 30 nM. Could you check?
// result t

// query Lab log: compare recorded IC50 with 30 nM; is it strictly lower for Cc1cc(-c2cnc3cc(-c4ccc(C5COCC(C)N5)cc4)ccn23)c2cc(F)ccc2n1 (centres unmarked) ?
// result t
